Listed next: entries and their corresponding IC50.
Target: human recombinant LRRK2 protein (Homo sapiens)
Sequence (Q5S007 whole entry): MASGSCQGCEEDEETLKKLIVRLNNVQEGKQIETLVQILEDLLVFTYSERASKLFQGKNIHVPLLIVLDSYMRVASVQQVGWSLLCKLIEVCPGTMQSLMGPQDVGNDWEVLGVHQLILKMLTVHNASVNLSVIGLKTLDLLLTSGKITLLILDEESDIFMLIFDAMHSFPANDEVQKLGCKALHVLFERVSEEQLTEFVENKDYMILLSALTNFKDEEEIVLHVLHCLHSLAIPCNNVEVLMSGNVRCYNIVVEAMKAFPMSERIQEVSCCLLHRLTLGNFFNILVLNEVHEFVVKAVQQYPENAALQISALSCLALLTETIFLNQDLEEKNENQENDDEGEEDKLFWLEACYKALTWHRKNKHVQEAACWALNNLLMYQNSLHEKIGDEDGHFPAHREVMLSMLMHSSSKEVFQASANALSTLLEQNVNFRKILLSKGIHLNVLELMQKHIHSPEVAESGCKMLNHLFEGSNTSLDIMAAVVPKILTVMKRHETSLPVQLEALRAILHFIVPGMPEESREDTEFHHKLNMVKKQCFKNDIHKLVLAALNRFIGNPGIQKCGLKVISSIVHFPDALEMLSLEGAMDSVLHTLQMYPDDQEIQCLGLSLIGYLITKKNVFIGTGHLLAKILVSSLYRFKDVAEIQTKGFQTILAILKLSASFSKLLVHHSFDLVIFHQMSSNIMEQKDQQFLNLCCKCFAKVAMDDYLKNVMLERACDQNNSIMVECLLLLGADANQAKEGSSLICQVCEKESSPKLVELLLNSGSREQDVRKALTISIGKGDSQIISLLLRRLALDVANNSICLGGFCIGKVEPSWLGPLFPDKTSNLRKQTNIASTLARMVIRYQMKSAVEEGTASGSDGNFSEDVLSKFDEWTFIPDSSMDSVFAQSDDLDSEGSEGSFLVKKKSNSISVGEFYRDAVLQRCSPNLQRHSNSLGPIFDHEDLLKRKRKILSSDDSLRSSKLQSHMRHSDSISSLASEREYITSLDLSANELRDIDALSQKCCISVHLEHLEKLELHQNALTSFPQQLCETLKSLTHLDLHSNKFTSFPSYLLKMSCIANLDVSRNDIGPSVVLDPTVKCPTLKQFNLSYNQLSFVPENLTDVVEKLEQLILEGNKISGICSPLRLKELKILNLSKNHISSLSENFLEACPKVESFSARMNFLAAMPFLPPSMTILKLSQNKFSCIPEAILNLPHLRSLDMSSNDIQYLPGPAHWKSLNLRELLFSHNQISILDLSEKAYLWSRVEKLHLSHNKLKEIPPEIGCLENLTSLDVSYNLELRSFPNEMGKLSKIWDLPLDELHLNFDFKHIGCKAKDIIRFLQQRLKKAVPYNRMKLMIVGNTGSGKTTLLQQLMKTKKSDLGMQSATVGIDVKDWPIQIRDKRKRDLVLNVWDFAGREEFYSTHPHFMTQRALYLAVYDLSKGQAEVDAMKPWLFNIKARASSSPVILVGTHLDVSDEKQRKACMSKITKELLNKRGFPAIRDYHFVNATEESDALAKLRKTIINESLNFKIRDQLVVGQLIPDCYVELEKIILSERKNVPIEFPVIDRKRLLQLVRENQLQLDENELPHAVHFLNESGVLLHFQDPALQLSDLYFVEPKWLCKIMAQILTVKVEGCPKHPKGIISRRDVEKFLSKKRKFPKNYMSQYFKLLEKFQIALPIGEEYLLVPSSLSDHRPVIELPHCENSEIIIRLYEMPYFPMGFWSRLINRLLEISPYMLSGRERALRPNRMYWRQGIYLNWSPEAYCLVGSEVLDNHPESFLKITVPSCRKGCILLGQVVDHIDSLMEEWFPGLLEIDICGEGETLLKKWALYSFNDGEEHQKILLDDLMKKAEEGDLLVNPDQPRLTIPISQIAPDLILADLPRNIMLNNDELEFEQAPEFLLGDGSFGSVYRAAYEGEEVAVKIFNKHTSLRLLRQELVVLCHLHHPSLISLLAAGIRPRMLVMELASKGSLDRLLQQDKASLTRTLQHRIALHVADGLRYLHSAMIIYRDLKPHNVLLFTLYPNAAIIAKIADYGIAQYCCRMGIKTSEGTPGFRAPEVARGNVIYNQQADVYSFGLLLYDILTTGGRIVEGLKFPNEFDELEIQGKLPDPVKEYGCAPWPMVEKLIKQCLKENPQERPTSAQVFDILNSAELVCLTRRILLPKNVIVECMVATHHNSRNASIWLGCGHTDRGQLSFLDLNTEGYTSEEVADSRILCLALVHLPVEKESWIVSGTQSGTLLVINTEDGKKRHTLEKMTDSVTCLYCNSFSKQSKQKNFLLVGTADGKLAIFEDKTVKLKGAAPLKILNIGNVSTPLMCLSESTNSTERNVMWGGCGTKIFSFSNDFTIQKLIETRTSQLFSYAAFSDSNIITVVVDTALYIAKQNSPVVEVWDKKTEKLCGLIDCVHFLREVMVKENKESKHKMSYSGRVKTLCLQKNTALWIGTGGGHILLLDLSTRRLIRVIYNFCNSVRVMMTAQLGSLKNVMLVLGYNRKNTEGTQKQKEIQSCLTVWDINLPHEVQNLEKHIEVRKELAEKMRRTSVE
Experiment: LRRK2 kinase activity assay (ADP-Glo, LRRKtide peptide)
Conditions: human recombinant LRRK2 wt, LRRKtide peptide and ATP, 1 h at 37° C.
Method: The inhibition of LRRK2 kinase was assessed using human recombinant LRRK2 protein in an in vitro peptide-based kinase assay. LRRK2 Kinase reactions were carried out in 384-well white polystyrene plates in a final volume of 6 μl using ADP-Glo™ Kinase Assay kit (Promega Corp.). […] A final 30-minutes incubation after 12 μL reagent-2 addition (ADP to ATP conversion and luciferin/luciferase reaction) was performed before luminescent signal acquisition (EnVision™ multimode plate reader—PerkinElmer, Inc.). […]
Structures can show the parent of a compound that is named as a salt.

C[C@H]1COCCCOCc2nc(cn2C)-c2n[nH]c3ccc(cc23)O1: < 1000 nM

The compound identified as "CC(C)Oc1cc2cc(c1)-c1n[nH]c3ccc(cc13)OCCCN(C)CCO2" registered its IC50 at < 100 nM

The reported IC50 of the compound COCC1CCOc2ccc3[nH]nc(c3c2)-c2cccc(c2)OCC(=O)N1 (single isomer, unassigned) [Example 150] was < 100 nM

get_value(item= "Cc1cc2nc(n1)OCCOCC[C@H](C)Nc1ccc3[nH]nc-2c3c1" , readout=IC50) returns < 10 nM

// IC50 value for "C[C@@H]1COCCOC[C@H](C)n2cc(cn2)-c2n[nH]c3ccc(cc23)O1" : < 100 nM

Lab book: IC50 of O=C1COc2cc(cc(C3CCOC3)c2)-c2n[nH]c3ccc(cc23)OCCCN1 (centres unmarked) noted as < 10 nM

Recorded result, "C[C@@H]1COCCOCCn2cc(cc2C#N)-c2n[nH]c3ccc(cc23)O1" , IC50: < 100 nM

The recorded IC50 for entry C[C@@H]1COCCO[C@H](C)c2cncc(c2)-c2n[nH]c3ccc(cc23)O1 [Example 13, hydrochloride] equals < 100 nM

The compound listed as "O=C1COc2cc(C3=CCOCC3)cc(c2)-c2n[nH]c3ccc(cc23)OCCCN1" has a reported IC50 of < 10 nM
